tested on: Staphylococcus auricularis; experiment: Antibacterial activity against methicillin resistant coagulase-negative Staphylococcus auricularis clinical isolate by broth microdilution method; format: functional
valueKind: MIC90

// sample CN[C@H](CC(C)C)C(=O)N[C@H]1C(=O)N[C@@H](CC(N)=O)C(=O)N[C@H]2C(=O)N[C@H]3C(=O)N[C@H](C(=O)N[C@H](C(=O)O)c4cc(O)cc(O)c4-c4cc3ccc4O)[C@H](O)c3ccc(c(Cl)c3)Oc3cc2cc(c3O[C@@H]2O[C@H](CO)[C@@H](O)[C@H](O)[C@H]2O[C@H]2C[C@](C)(N)[C@H](O)[C@H](C)O2)Oc2ccc(cc2Cl)[C@H]1O [VANCOMYCIN] , its MIC90 was 2 µg/mL

For CCCCCCCCCCNCCN[C@@]1(C)C[C@H](O[C@H]2[C@H](Oc3c4cc5cc3Oc3ccc(cc3Cl)[C@@H](O)[C@@H](NC(=O)[C@@H](CC(C)C)NC)C(=O)N[C@@H](CC(N)=O)C(=O)N[C@H]5C(=O)N[C@H]3C(=O)N[C@H](C(=O)N[C@H](C(=O)O)c5cc(O)c(CNCP(=O)(O)O)c(O)c5-c5cc3ccc5O)[C@H](O)c3ccc(c(Cl)c3)O4)O[C@H](CO)[C@@H](O)[C@@H]2O)O[C@@H](C)[C@H]1O [TELAVANCIN] the compound record lists MIC90 as 1 µg/mL

According to the records, this compound CCCCCCCCCC(=O)N[C@@H](Cc1c[nH]c2ccccc12)C(=O)N[C@H](CC(N)=O)C(=O)N[C@@H](CC(=O)O)C(=O)N[C@@H]1C(=O)NCC(=O)N[C@@H](CCCN)C(=O)N[C@@H](CC(=O)O)C(=O)N[C@H](C)C(=O)N[C@@H](CC(=O)O)C(=O)NCC(=O)N[C@H](CO)C(=O)N[C@@H]([C@H](C)CC(=O)O)C(=O)N[C@@H](CC(=O)c2ccccc2N)C(=O)O[C@@H]1C displays MIC90 of 1 µg/mL
